- EXPERIMENT DESCRIPTION: qHTS assay to identify inhibitors of the type 1 interferon - major histocompatibility complex class I in skeletal muscle: Counter screen cell viability and HiBit confirmation (AID 1347412); also: % is scaled to controls: 0 for no effect and ±100 for the full control effect; nearly all actives have a fitted effect of over 60% in size
- COND: iHSKM muscle cells + IFN-b, HiBiT or CellTiter-Glo, 24 h; Viability; at 45.9 µM (top of the series)
- Text: […]
Records with an inconclusive call do not appear.
Below, each of the molecules is paired with its reported activity change, negative = inhibition value.
Supply the numeric figure in %, leaving out any unit text.

SMILES INPUT | activity change, negative = inhibition [%]
Cc1ccc(C(=O)Nc2cccc(C(F)(F)F)c2)cc1Nc1nc(-c2cccnc2)nc2c1cnn2C | -7.92
COc1cc(Nc2ncc(F)c(Nc3ccc4c(n3)NC(=O)C(C)(C)O4)n2)cc(OC)c1OC | -9.37
C[C@H](NC(=O)C(=O)Nc1ccccc1C(C)(C)C)C(=O)N[C@@H](CC(=O)O)C(=O)COc1c(F)c(F)cc(F)c1F | 0.0107
O=C(CCCCCCC(=O)Nc1ccccc1)NO | 2.12

Could you now consider this next molecule?
activity change, negative = inhibition measured on "CC(C)(C)C(=O)Oc1ccc2c(c1)nc(NC(=O)c1cccc([N+](=O)[O-])c1)n2CCCO" = -3.08

###

- EXPERIMENT DESCRIPTION: Cell Proliferation Assay against the HBL1 Cell Line (AID 651646);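 also: cells exposed to compound for 48 h before reading; 100% = DMSO and 0% = 9.2 µM bortezomib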
- COND: HBL1 DLBCL cells; at 46.1 µM (top of the series) unless noted
Below, each of the molecules is paired with its reported viability, percent of control value.
Supply the numeric figure in %, leaving out any unit text.

MOLECULE | viability, percent of control, %
c1ccc2c(-c3cnn4cc(-c5ccc(N6CCNCC6)cc5)cnc34)ccnc2c1 | 3.84
CC(C)(C)C(=O)Oc1ccc2c(c1)nc(NC(=O)c1cccc([N+](=O)[O-])c1)n2CCCO | 16.8

Could you now consider this next molecule?
viability, percent of control measured on "O=c1cc(N2CCOCC2)oc2c(-c3cccc4c3sc3ccccc34)cccc12" = 2.43

###

- EXPERIMENT DESCRIPTION: High-throughput drug toxicity screening in the BPDCN cell line Gen2.2 (AID 1224824);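 also: cells exposed to compounds for 48 h before reading; 100% = DMSO and 0% = bortezomib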
- COND: Gen2.2 BPDCN cells; at 45.8 µM (top of the series) unless noted
Binary label based on cell viability, % of control (lower = more cytotoxic) with cut-off 90%: below gives YES, not below gives NO.

Use these answered entries as a reference point.
MOLECULE | QUALITATIVE LABEL
CCN(CC)CCOc1ccc(C(=C(Cl)c2ccccc2)c2ccccc2)cc1 | NO
C[C@]12CCC3c4ccc(O)cc4CCC3C1CCC2=O (stereo not given in full) | YES

Answer whether the molecule "NC(=O)c1cccc(-c2cc(Nc3ccc(OC(F)(F)F)cc3)ncn2)c1" has cell viability, % of control (lower = more cytotoxic) strictly less than 90% NO

###

- EXPERIMENT DESCRIPTION: qHTS of pediatric cancer cell lines to identify multiple opportunities for drug repurposing: Confirmatory screen for DAOY cells (AID 1347114); also: nearly all actives have a fitted effect of over 65% in size
- COND: DAOY medulloblastoma cells viability, cytotoxicity qHTS; series mostly up to 45.9 µM
- Procedure: Drug repurposing or repositioning has been offered as a strategy for drug development in oncology programs. […] [1] Shen, M et al. Quantitative high-throughput phenotypic screening of pediatric cancer cell lines identifies multiple opportunities for drug repurposing. […] Cells were assayed in growth media at a density of 500-1,000 cells/well. […] After a 15 min incubation at room temperature, samples were analyzed for luminescence intensity using a ViewLux High-throughput CCD imager equipped with clear filters.
Inconclusive results are not listed. Calls of active or inactive are those of the source. The call rests on the fitted dose curve; in most records, active means well fitted cell-killing curve with a large enough effect; inconclusive means small, poorly fitted or top-dose-only effect; inactive means no such curve, though single readings can be large or run the other way.
Returns: one label drawn from active, inactive

Use these answered entries as a reference point.
SMILES INPUT | QUALITATIVE LABEL
COc1cccc(-c2cc(=O)c3ccccc3o2)c1N | inactive
CC(=O)Nc1ccc([C@H](C)C(=O)Nc2ncc(C(C)C)s2)cc1 | active
COc1cc(N2CCC(N3CCN(C)CC3)CC2)ccc1Nc1ncc(Cl)c(Nc2ccccc2S(=O)(=O)C(C)C)n1 | active
CC(C)(C(=O)NCC(F)(F)C(F)(F)F)C(=O)N[C@@H]1C(=O)Nc2ccccc2-c2ccccc21 | inactive
COc1ccc(-c2nc(N3CCOCC3)c3sc(CN(C)c4ncc(C(=O)NO)cn4)cc3n2)cn1 | active
COc1cc2nc(-c3ccc(N4CCN(C)CC4)cc3)nc(NCCN3CCOCC3)c2cc1OC | active

# next molecule below
For "OC[C@H]1O[C@@H](n2cnc3c2NC=NC[C@@H]3O)C[C@H]1O" , what call appears in the results of this test? inactive
